System: Yap1 mRNA
method-description: Dose-dependent inhibition of human Yap1 in SNU-449 cells (Example 9, RTS36584)
Type: cell-based
condition-summary: 125.0 nM, free uptake, approximately 48 hours
Strand notation (5' to 3'): a small letter for the sugar, then the base; units joined by * are phosphorothioate-linked, units joined directly phosphodiester-linked; [ ] holds rarer units or linkages, { } end groups; capitals alone tell only the bases. e = 2'-O-(2-methoxyethyl) (MOE); k = constrained ethyl (cEt); [5mC] = 5-methylcytosine; d = 2'-deoxy (DNA); m = 2'-O-methyl

substance | % UTC (Yap1 mRNA) (% UTC)
1197178 (kA*kA*kT*dT*dG*dT*d[5mC]*dT*d[5mC]*dA*dT*dG*d[5mC]*k[5mC]*kT*kT; antisense) [compound 1197178] | 36
1076481 (k[5mC]*kT*kA*dA*dG*dT*dA*dA*dG*dG*dT*dT*dT*k[5mC]*k[5mC]*k[5mC]) [compound 1076481] | 40
1197269 (kT*kA*kA*dA*mG*dT*dG*dT*dA*dT*dG*dT*d[5mC]*kA*kG*kA; antisense) [compound 1197269] | 21
1198873 (kA*kG*dT*dG*dT*dA*dT*dG*dT*d[5mC]*dA*kG*eA*kA*eG*kA; antisense) [compound 1198873] | 12
1198525 (kA*kG*dT*dG*dT*dA*dT*dG*dT*d[5mC]*dA*eG*kA*eA*kG*eA) [compound 1198525] | 26
1197313 (kA*kG*kT*dG*mU*dA*dT*dG*dT*d[5mC]*dA*dG*dA*kA*kG*kA; antisense) [compound 1197313] | 38
1198501 (kG*kA*dT*dT*dT*dA*dG*dG*dA*dT*dG*e[5mC]*kA*eT*kG*eG; antisense) [compound 1198501] | 36

----------
method-description: Cynomolgus monkey tolerability, kidney and liver function markers (Example 34)
condition-summary: cynomolgus monkeys, 35 mg/kg subcutaneously, day 44

substance | CREA
1198605 (GTAATATTGCAATCTG; modified gapmer, further chemistry not given here) [compound 1198605] | 0.8 mg/dL
1198623 (CTAAGTAAGGTTTCCC; modified gapmer, further chemistry not given here) [compound 1198623] | 0.8 mg/dL
1076453 (GTAATATTGCAATCTG; 3-10-3 cEt gapmer, further chemistry not given here) [compound 1076453] | 0.9 mg/dL
1197270 (TTAAAGTGTATGTCAG; cEt gapmer with 2'-OMe nucleoside, phosphorothioate, further chemistry not given here) [compound 1197270] | 0.9 mg/dL
958499 (ATTAGAGTATGTGGCA; 3-10-3 cEt gapmer, further chemistry not given here) [compound 958499] | 0.9 mg/dL

----------
Catalogue of substances with associated % UTC (Yap1 mRNA)
System: Yap1 mRNA
method-description: Dose-dependent inhibition of human Yap1 in SNU-449 cells (Example 9, RTS36584)
Format: cell-based
condition-summary: 2000.00 nM, free uptake, approximately 48 hours
Strand notation (5' to 3'): a small letter for the sugar, then the base; units joined by * are phosphorothioate-linked, units joined directly phosphodiester-linked; [ ] holds rarer units or linkages, { } end groups; capitals alone tell only the bases. e = 2'-O-(2-methoxyethyl) (MOE); k = constrained ethyl (cEt); [5mC] = 5-methylcytosine; d = 2'-deoxy (DNA); m = 2'-O-methyl

substance | unit-of-measure | % UTC (Yap1 mRNA)
1198656 (kG*k[5mC]*dA*d[5mC]*dT*dT*dT*dT*dA*d[5mC]*dA*dT*kT*eA*kG*eG; antisense) [compound 1198656] | % UTC | 3
1198384 (kT*dA*dT*dT*dA*dG*dA*dG*dT*dA*dT*kG*eT*kG*eG*k[5mC]; antisense) [compound 1198384] | % UTC | 17
1198507 (kT*kT*dA*dT*dA*dT*dG*dG*dT*dT*dT*eT*kG*eT*kG*eT; antisense) [compound 1198507] | % UTC | 13
1198832 (kG*k[5mC]*dA*d[5mC]*dT*dT*dT*dT*dA*d[5mC]*dA*kT*eT*kA*eG*kG; antisense) [compound 1198832] | % UTC | 13
1198610 (kT*kG*kT*dA*dT*dG*dT*d[5mC]*dA*dG*dA*dA*kG*kA*kG*eT; antisense) [compound 1198610] | % UTC | 2
1200784 (kT*kG*kT*d[5mC]*dT*mC*dA*dT*dG*d[5mC]*d[5mC]*dT*dT*kA*kT*kA; antisense) [compound 1200784] | % UTC | 12
1198615 (kT*kT*kA*dA*dA*dG*dT*dG*dT*dA*dT*dG*kT*k[5mC]*kA*eG) [compound 1198615] | % UTC | 2
1198553 (kT*kA*kG*dA*dG*dT*dA*dT*dG*dT*dG*dG*k[5mC]*kA*kA*eT; antisense) [compound 1198553] | % UTC | 6
1197178 (kA*kA*kT*dT*dG*dT*d[5mC]*dT*d[5mC]*dA*dT*dG*d[5mC]*k[5mC]*kT*kT; antisense) [compound 1197178] | % UTC | 4
1198212 (kT*kA*dT*dT*dA*dG*dA*dG*dT*dA*dT*eG*eT*eG*kG*k[5mC]) [compound 1198212] | % UTC | 2
1198728 (TATTAGAGTATGTGGC; modified gapmer, further chemistry not given here) [compound 1198728] | % UTC | 3
1074464 (kT*kT*kA*dG*dA*dG*dT*dA*dT*dG*dT*dG*dG*k[5mC]*kA*kA) [compound 1074464] | % UTC | 6
1198959 (kA*kG*dT*dG*dT*dA*dT*dG*dT*d[5mC]*dA*kG*dA*kA*dG*kA; antisense) [compound 1198959] | % UTC | 2
1198529 (kT*kT*dA*dA*dA*dG*dT*dG*dT*dA*dT*eG*kT*e[5mC]*kA*eG; antisense) [compound 1198529] | % UTC | 16
1076481 (k[5mC]*kT*kA*dA*dG*dT*dA*dA*dG*dG*dT*dT*dT*k[5mC]*k[5mC]*k[5mC]) [compound 1076481] | % UTC | 3
1198546 (kG*kA*kA*dA*dT*dT*dG*dT*d[5mC]*dT*d[5mC]*dA*kT*kG*k[5mC]*e[5mC]) [compound 1198546] | % UTC | 6
1198554 (kT*kT*kA*dG*dA*dG*dT*dA*dT*dG*dT*dG*kG*k[5mC]*kA*eA; antisense) [compound 1198554] | % UTC | 8
1198501 (kG*kA*dT*dT*dT*dA*dG*dG*dA*dT*dG*e[5mC]*kA*eT*kG*eG; antisense) [compound 1198501] | % UTC | 11
1198905 (kA*kT*dA*dT*dT*dA*dG*dA*dG*dT*dA*kT*dG*kT*dG*kG; antisense) [compound 1198905] | % UTC | 6
1197215 (kA*kA*kG*dT*dG*dT*dA*dT*dG*dT*d[5mC]*dA*dG*kA*kA*kG) [compound 1197215] | % UTC | 2
1197213 (kT*kG*kT*dA*dT*dG*dT*d[5mC]*dA*dG*dA*dA*dG*kA*kG*kT; antisense) [compound 1197213] | % UTC | 2
1198718 (kG*eA*kA*dA*dT*dT*dG*dT*d[5mC]*dT*d[5mC]*dA*eT*eG*k[5mC]*k[5mC]; antisense) [compound 1198718] | % UTC | 4
1198494 (kG*kT*dG*d[5mC]*dT*dT*dT*dG*dG*dA*dA*eG*kA*eT*k[5mC]*eT; antisense) [compound 1198494] | % UTC | 13
1074728 (antisense kT*kG*kA*dG*dG*dT*dA*dT*dA*dA*d[5mC]*dT*dG*kG*kG*k[5mC]) [compound 1074728] | % UTC | 8
1198355 (kA*kA*kA*dG*dT*dG*dT*dA*dT*dG*dT*d[5mC]*kA*eG*kA*eA; antisense) [compound 1198355] | % UTC | 4
1198904 (kT*kA*dT*dT*dA*dG*dA*dG*dT*dA*dT*kG*dT*kG*dG*k[5mC]; antisense) [compound 1198904] | % UTC | 10

----------
method-description: Tolerability in CD-1 mice, plasma chemistry markers (Example 15)
Type: in vivo
condition-summary: male CD-1 mice, 50 mg/kg s.c. twice a week for four weeks (8 treatments), day 26
Strand notation (5' to 3'): a small letter for the sugar, then the base; units joined by * are phosphorothioate-linked, units joined directly phosphodiester-linked; [ ] holds rarer units or linkages, { } end groups; capitals alone tell only the bases. k = constrained ethyl (cEt); [5mC] = 5-methylcytosine; d = 2'-deoxy (DNA)

substance | ALB, g/dL
715487 (kA*kT*kT*dA*d[5mC]*dT*dT*d[5mC]*dA*dT*dA*dG*d[5mC]*kT*kT*kA) [compound 715487] | 1.9
715483 (k[5mC]*kT*k[5mC]*dT*dT*dT*dG*dG*dA*dA*dA*d[5mC]*d[5mC]*kA*kT*kT) [compound 715483] | 2.2
716454 (antisense k[5mC]*kG*kA*dG*dA*dT*dT*dT*dA*dA*dA*dT*dA*kA*kG*kG) [compound 716454] | 2.3
1074461 (kG*kA*kA*dA*dT*dT*dG*dT*d[5mC]*dT*d[5mC]*dA*dT*kG*k[5mC]*k[5mC]) [compound 1074461] | 2.2
